Tested target: T1, human CD8 alpha (CD8A) on primary human CD8+ T cells (human, UniProt P01732 22-235)
T1 construct: whole, on cells; also called hCD8A
T1 sequence (P01732 22-235): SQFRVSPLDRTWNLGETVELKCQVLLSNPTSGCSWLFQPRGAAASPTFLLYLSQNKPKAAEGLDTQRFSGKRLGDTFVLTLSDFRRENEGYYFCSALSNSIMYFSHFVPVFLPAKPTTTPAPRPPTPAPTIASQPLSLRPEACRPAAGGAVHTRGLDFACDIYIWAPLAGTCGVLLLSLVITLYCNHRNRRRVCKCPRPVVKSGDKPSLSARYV
Protocol: flow cytometry, human CD8+ T cells
Field: Human T-cell Binding 0.2 uM (MFI). Provide a value for each of the binders that follow.
One number for each entry, in MFI.

Below, 3 binders whose answers are already recorded.
Binder	Unit label	Human T-cell Binding 0.2 uM (MFI)
P283FR9P1366_F5 (designed binder, FN3 domain) LPAPKNLVVSRVTEDSARLSWTAPDAAFDSFDIGYPEWPIKGEAIVLTVPGSERSYDLTGLKPGTEYWVIIWGVKGGDRSEPLSAIFTT	MFI	720
P283GR7P1367_H2 (designed binder, FN3 domain) LPAPKNLVVSRVTEDSARLSWTAPDAAFDSFDIAYPEWPTDGEAIVLTVPGSERSYDLTGLKPGTEYFVVIYGVKGGGRSYPLSAIFTT	MFI	390
P283DR9P1364_E3 (designed binder, FN3 domain) LPAPKNLVVSRVTEDSARLSWTAPDAAFDSFGIAYPELPIGGEAIVLTVPGSERSYDLTGLKPGTEYFVIIRGVKGGTLSPPLSAIFTT	MFI	317

Here's the next entry for you.
Need Human T-cell Binding 0.2 uM (MFI) of P283BR9P1363_E6 (designed binder, FN3 domain) LPAPKNLVVSRVTEDSARLSWYARKFISPFDSFLIQYQESEKVGEAIVLTVPGSERSYDLTGLKPGTEYTVSIYGVDVKWEGNRPVASNPLSAIFTT , thanks.
2080
